These entries and their values trace back to patent US20060292639A1.

target: human pancreas VR1A (Homo sapiens, UniProt Q8NER1, I585V/M315I/M552V); construct: VR1A codes for a VR1-like protein, 837 amino acids long, with 148 unique residues at the N-terminal end; expressed in transfected cells; host or cells: CHO; experiment: Ca2+ influx assay, stable cell line expressing VR1A; format: cell-based; settings: IC50 Capsazepine, VR1A stable cell line, RTX as agonist, N=4
Sequence (Q8NER1 1-837 isoform Q8NER1-3 M313I/M550V/I583V): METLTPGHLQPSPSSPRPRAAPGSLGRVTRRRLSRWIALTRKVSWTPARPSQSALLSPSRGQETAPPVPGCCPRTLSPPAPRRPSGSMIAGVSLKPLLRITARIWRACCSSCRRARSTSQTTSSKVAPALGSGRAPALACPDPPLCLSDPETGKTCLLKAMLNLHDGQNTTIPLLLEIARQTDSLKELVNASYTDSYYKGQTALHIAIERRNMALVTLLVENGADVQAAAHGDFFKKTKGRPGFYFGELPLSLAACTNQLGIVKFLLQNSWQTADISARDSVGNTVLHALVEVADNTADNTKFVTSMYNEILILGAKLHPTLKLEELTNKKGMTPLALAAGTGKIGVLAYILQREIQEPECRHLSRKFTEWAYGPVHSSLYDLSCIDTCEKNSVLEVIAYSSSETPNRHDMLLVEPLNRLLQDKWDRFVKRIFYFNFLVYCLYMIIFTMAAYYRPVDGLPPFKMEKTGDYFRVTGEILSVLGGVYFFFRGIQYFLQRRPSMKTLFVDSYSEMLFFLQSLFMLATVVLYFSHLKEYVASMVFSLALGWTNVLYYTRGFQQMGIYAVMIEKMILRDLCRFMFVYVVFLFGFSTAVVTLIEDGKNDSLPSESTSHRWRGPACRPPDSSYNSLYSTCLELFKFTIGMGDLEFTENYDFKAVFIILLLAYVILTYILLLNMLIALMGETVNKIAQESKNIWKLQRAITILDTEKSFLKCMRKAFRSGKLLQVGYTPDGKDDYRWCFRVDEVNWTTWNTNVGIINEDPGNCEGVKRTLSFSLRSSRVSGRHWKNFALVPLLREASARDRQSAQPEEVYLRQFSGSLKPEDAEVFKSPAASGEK
VALUE KIND: IC50 (nM)
Your answer should be a plain number; it is taken to be in nM.

**Query** Short answer please: IC50, human pancreas VR1A (Homo sapiens, UniProt Q8NER1, I585V/M315I/M552V), entry Oc1cc2c(cc1O)CN(C(=S)NCCc1ccc(Cl)cc1)CCC2 [Capsazepine, capsazepine]
**Result** 25

---

molecular target: human DRG VR1 (Homo sapiens, UniProt Q8NER1, I585V/K332R/M315I); construct: The two primers were designed to amplify the entire coding region; expressed in transfected cells; CHO is stated only for the VR1A construct; assay: Ca2+ influx assay, stable cell line expressing VR1; assay type: cell-based; details: VR1 stable cell line, RTX as agonist, N=4; read-out: IC50 Capsazepine
Sequence (Q8NER1 whole entry M315I/K332R/I585V): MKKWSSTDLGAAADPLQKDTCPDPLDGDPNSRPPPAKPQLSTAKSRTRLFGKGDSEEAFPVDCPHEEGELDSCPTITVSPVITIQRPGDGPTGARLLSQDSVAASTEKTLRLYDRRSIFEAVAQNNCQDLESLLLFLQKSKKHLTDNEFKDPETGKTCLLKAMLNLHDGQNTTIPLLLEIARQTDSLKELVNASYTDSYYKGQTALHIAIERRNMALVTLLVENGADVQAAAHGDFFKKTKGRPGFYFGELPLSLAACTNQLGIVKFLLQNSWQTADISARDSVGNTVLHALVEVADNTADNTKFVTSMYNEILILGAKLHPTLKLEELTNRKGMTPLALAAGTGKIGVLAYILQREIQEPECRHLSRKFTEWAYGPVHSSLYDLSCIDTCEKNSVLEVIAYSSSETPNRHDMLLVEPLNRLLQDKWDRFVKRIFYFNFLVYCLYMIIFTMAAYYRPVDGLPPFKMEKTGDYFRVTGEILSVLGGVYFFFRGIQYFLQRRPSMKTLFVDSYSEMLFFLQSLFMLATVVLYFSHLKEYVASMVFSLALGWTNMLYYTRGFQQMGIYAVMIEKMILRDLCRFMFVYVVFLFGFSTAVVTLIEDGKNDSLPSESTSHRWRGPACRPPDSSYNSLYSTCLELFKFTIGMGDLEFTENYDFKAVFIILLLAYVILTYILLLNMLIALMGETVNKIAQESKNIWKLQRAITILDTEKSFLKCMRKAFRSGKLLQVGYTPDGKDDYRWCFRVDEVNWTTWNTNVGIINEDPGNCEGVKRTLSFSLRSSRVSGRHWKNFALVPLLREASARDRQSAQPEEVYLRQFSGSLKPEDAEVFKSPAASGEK
VALUE KIND: pIC50
Formally, pIC50 is defined as -log10 of the concentration c, with c in mol/L.

**Query** Short answer please: pIC50, human DRG VR1 (Homo sapiens, UniProt Q8NER1, I585V/K332R/M315I), entry Oc1cc2c(cc1O)CN(C(=S)NCCc1ccc(Cl)cc1)CCC2 [Capsazepine, capsazepine]
**Result** 6.85

---

molecular target: human pancreas VR1A (Homo sapiens, UniProt Q8NER1, I585V/M315I/M552V); construct: VR1A codes for a VR1-like protein, 837 amino acids long, with 148 unique residues at the N-terminal end; expressed in transfected cells; host or cells: CHO; assay: Ca2+ influx assay, stable cell line expressing VR1A; format: cell-based; conditions: read-out: IC50 Capsazepine
VALUE KIND: pIC50
Formally, pIC50 is defined as -log10 of the concentration c, with c in mol/L.

**Query** Which pIC50 is listed for Oc1cc2c(cc1O)CN(C(=S)NCCc1ccc(Cl)cc1)CCC2 [Capsazepine, capsazepine] ?
**Result** 7.22

---

Biological target: human pancreas VR1A (Homo sapiens, UniProt Q8NER1, I585V/M315I/M552V)
Construct: VR1A codes for a VR1-like protein, 837 amino acids long, with 148 unique residues at the N-terminal end
Test: Ca2+ influx assay, stable cell line expressing VR1A
Method: B. Generation of a stable cell line: The VR1A construct was transfected into 80-90% confluent cultures of CHO cells grown in F12 media containing 10% fetal bovine serum (Hyclone Laboratories). After 48 hours, cells were transferred to selection medium (growth medium containing 1 mg/ml of G418) and 15 days later individual G418 resistant foci were isolated and expanded. In order to identify a functional cell line, the expanded cells were plated in a 96 well plate and grown to confluency. […]
VALUE KIND: pEC50
Formally, pEC50 is defined as -log10 of the concentration c, with c in mol/L.

**Query** Short answer please: pEC50, human pancreas VR1A (Homo sapiens, UniProt Q8NER1, I585V/M315I/M552V), entry "C=C(C)[C@]12C[C@@H](C)[C@@]34O[C@](Cc5ccccc5)(O[C@@H]1[C@@H]3C=C(COC(=O)Cc1ccc(O)c(OC)c1)C[C@]1(O)C(=O)C(C)=C[C@@H]41)O2"
**Result** 8.30
